# systemUnderTest: ROCK2 (Homo sapiens (Human), UniProt O75116)
# assayNotes: ROCK2 phosphorylation activity (Reaction Biology, radiometric)
# Assay type: biochemical
# experimentalParameters: 10 uM ATP
# Sequence (O75116 5-554): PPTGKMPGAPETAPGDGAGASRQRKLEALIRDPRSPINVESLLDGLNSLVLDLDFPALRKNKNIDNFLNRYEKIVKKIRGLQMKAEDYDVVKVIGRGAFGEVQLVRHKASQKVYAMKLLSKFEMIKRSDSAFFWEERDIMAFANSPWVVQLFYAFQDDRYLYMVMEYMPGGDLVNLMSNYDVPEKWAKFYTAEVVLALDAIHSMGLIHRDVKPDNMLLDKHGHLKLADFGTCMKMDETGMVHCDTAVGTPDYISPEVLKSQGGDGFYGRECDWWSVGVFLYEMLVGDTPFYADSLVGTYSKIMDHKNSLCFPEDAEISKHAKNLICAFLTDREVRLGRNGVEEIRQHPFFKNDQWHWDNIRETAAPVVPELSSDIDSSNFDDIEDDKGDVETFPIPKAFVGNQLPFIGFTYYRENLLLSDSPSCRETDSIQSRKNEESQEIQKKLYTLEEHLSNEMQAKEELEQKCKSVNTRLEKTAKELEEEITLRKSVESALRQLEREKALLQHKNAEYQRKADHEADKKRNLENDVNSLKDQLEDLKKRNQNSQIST
Measured IC50 of individual entries
// units = nM; emit number, no label

[
  {
    "smiles": "CC(C)c1c(Oc2ccc(CN)cc2Cl)ccc2c1B(O)OC2",
    "measValue": 47
  },
  {
    "smiles": "Cc1c(Oc2cccc(CN)c2F)ccc2c1B(O)OC2",
    "measValue": 220
  }
]

Look at this compound and give its reported IC50. `Cc1c(Oc2cccc(CNC(=O)OC(C)(C)C)c2F)ccc2c1B(O)OC2`
660

----------
Measured pIC50 of individual entries
# systemUnderTest: AKT1 (Homo sapiens (Human), UniProt P31749)
# Sequence (P31749 whole entry, species assumed): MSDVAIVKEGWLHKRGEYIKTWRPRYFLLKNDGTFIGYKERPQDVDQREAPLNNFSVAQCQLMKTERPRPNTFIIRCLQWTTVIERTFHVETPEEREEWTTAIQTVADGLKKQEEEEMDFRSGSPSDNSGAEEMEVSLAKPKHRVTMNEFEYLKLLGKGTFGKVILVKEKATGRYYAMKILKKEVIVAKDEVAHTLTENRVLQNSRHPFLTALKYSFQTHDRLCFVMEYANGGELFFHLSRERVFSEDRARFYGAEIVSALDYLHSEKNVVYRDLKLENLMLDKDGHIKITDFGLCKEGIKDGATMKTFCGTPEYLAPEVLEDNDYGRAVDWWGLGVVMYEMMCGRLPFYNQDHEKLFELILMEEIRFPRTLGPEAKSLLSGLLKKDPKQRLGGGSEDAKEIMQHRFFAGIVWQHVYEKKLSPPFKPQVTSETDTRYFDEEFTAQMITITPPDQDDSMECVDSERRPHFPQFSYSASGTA
pIC50 (log units): -log10 of the concentration in mol/L.

Quick check: pIC50 on AKT1 (Homo sapiens (Human), UniProt P31749), item Cc1c(Oc2ccc(C(C)N)cc2F)ccc2c1B(O)OC2.Cl (single isomer, unassigned) ?
4.36

Quick check: pIC50 on AKT1 (Homo sapiens (Human), UniProt P31749), item Cc1c(Oc2ccc(C(C)N)cc2F)ccc2c1B(O)OC2 (stereo not drawn) [E] ?
4.67

Quick check: pIC50 on AKT1 (Homo sapiens (Human), UniProt P31749), item `Cc1c(Oc2ccc(CN)cc2F)ccc2c1B(O)OC2` ?
5.03

Quick check: pIC50 on AKT1 (Homo sapiens (Human), UniProt P31749), item Cc1c(Oc2ccc(C(C)N)cc2F)ccc2c1B(O)OC2 (single isomer, unassigned) [G] ?
4.96

----------
# systemUnderTest: ROCK2 (Homo sapiens (Human))
# assayNotes: ROCK2 phosphorylation activity (Reaction Biology, radiometric)
# Type: biochemical
# experimentalParameters: value for PKA/ROCK2
recordedMetric: SELECTIVITY RATIO

[
  {
    "compound": "Cc1c(Oc2ccc(C(C)N)cc2F)ccc2c1B(O)OC2.Cl (single isomer, unassigned)",
    "systemUnderTest": "ROCK2 (Homo sapiens (Human))",
    "measValue": 21.51
  }
]

Quick check: SELECTIVITY RATIO on ROCK2 (Homo sapiens (Human)), item `CC(C)c1c(Oc2ccc(CN)cc2Cl)ccc2c1B(O)OC2` ?
1.17

Quick check: SELECTIVITY RATIO on ROCK2 (Homo sapiens (Human)), item Cc1c(Oc2ccc(C(C)N)cc2F)ccc2c1B(O)OC2 (stereo not shown) ?
24.74

----------
# systemUnderTest: RSK1 (Homo sapiens (Human), UniProt Q15418)
# Sequence (Q15418 whole entry, species assumed): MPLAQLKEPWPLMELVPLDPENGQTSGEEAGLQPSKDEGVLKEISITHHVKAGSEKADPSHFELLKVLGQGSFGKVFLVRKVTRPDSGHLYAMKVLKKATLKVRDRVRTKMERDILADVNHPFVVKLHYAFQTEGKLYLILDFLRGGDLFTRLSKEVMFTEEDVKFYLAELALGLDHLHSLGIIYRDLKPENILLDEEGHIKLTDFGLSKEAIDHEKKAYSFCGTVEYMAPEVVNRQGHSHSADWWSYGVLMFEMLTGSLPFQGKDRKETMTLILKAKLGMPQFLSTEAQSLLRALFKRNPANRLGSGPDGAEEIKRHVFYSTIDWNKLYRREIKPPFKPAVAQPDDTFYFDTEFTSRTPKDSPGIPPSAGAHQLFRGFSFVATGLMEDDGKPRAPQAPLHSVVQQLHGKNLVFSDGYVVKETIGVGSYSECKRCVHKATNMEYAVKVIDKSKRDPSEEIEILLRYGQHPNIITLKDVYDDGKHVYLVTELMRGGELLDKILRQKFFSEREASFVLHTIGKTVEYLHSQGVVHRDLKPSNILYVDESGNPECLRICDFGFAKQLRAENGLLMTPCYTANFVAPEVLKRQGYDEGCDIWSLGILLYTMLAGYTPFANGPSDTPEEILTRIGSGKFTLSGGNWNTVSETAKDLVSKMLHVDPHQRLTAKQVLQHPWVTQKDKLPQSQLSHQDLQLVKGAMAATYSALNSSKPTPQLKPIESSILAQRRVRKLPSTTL
pIC50: −log10 of the molar value.
Note to self: values exactly at 5 are label 1. So pIC50 at or above 5 is label 1, below is label 0.

[
  {
    "compound": "Cc1c(Oc2cccc(CNC(=O)OC(C)(C)C)c2F)ccc2c1B(O)OC2",
    "systemUnderTest": "RSK1 (Homo sapiens (Human), UniProt Q15418)",
    "category": "label 0"
  }
]

Reported pIC50 at or above 5? `Cc1c(Oc2ccc(CN)cc2F)ccc2c1B(O)OC2`
label 1

Reported pIC50 at or above 5? Cc1c(Oc2ccc(C(C)N)cc2F)ccc2c1B(O)OC2 (single isomer, unassigned) [G]
label 1

Reported pIC50 at or above 5? `CC(C)c1c(Oc2ccc(CN)cc2Cl)ccc2c1B(O)OC2`
label 1

Reported pIC50 at or above 5? Cc1c(Oc2ccc(C(C)N)cc2F)ccc2c1B(O)OC2.Cl (single isomer, unassigned)
label 0

Reported pIC50 at or above 5? `Cc1c(Oc2cccc(CN)c2F)ccc2c1B(O)OC2`
label 1

----------
# systemUnderTest: ROCK1 (Homo sapiens (Human))
# assayNotes: ROCK1 phosphorylation activity (Reaction Biology, radiometric)
# Type: biochemical, H. sapiens
# experimentalParameters: read-out: Inhibition of hROCK1 Phosphorylation [IC50
Measured pIC50 of individual entries
pIC50 (log units): -log10 of the concentration in mol/L.

Example entries and their recorded answers appear below.
[
  {
    "molecule": "CC(N)c1ccc(Oc2ccc3c(c2)B(O)OC3)c(F)c1.Cl (stereo not shown) [C]",
    "pIC50": 6.27
  },
  {
    "molecule": "Cc1c(Oc2cccc(CNC(=O)OC(C)(C)C)c2F)ccc2c1B(O)OC2 [L]",
    "pIC50": 6.14
  },
  {
    "molecule": "Cc1c(Oc2cccc(CN)c2F)ccc2c1B(O)OC2 [M]",
    "pIC50": 6.61
  }
]

Look at this molecule and give its reported pIC50. Cc1c(Oc2ccc(C(C)N)cc2F)ccc2c1B(O)OC2 (single isomer, unassigned) [G]
6.77

Look at this molecule and give its reported pIC50. NCc1ccc(Oc2ccc3c(c2Cl)B(O)OC3)c(Cl)c1 [B]
4.96

Look at this molecule and give its reported pIC50. CCc1c(Oc2ccc(CN)cc2Cl)ccc2c1B(O)OC2 [A]
6.54

Look at this molecule and give its reported pIC50. Cc1c(Oc2ccc(C(C)N)cc2F)ccc2c1B(O)OC2 (stereo not shown) [E]
6.38

Look at this molecule and give its reported pIC50. Cc1c(Oc2ccc(CN)cc2F)ccc2c1B(O)OC2 [D]
6.47

Look at this molecule and give its reported pIC50. Cc1c(Oc2ccc(C(C)N)cc2F)ccc2c1B(O)OC2.Cl (single isomer, unassigned) [F]
6.27

Look at this molecule and give its reported pIC50. CC(C)c1c(Oc2ccc(CN)cc2Cl)ccc2c1B(O)OC2 [N]
6.22

----------
# Tested on: p-MYPT1 phosphorylation in PANC-1 cells
# assayNotes: Intracellular MYPT1 phosphorylation assay in PANC-1 cells
# Type: cell-based, H. sapiens
# experimentalParameters: Homo sapiens; PANC-1 cells, .0417 days (compounds applied for one hour); read-out: IC50: Inhib p-MYPT1 Phosphorylation in H. sapiens PANC-1 cells, .0417 days
recordedMetric: pIC50
pIC50 (log units): -log10 of the concentration in mol/L.

Example entries and their recorded answers appear below.
[
  {
    "molecule": "CC(N)c1ccc(Oc2ccc3c(c2)B(O)OC3)c(F)c1.Cl (stereo not shown)",
    "pIC50": 4.32
  },
  {
    "molecule": "Cc1c(Oc2ccc(C(C)N)cc2F)ccc2c1B(O)OC2 (stereo not shown)",
    "pIC50": 4.40
  },
  {
    "molecule": "Cc1c(Oc2ccc(C(C)N)cc2F)ccc2c1B(O)OC2.Cl (single isomer, unassigned)",
    "pIC50": 4.25
  }
]

Look at this molecule and give its reported pIC50. `Cc1c(Oc2ccc(CN)cc2F)ccc2c1B(O)OC2`
4.74

----------
Measured IC50 of individual entries
# systemUnderTest: ROCK1 (Homo sapiens (Human), UniProt Q13464)
# Sequence (Q13464 1-535): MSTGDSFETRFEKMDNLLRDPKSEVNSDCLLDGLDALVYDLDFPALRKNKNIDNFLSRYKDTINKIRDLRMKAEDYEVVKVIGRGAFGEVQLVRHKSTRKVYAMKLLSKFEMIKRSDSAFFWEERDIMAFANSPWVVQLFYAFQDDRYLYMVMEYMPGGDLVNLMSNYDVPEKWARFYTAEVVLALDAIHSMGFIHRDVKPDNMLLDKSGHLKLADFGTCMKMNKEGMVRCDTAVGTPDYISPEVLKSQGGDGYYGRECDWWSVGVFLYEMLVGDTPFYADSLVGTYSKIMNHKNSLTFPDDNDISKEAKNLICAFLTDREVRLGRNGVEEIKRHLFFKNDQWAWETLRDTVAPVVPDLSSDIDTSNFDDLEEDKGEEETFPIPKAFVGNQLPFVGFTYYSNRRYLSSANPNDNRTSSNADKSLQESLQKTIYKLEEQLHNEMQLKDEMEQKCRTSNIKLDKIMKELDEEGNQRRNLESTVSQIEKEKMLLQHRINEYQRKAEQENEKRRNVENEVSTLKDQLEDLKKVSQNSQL
# assayNotes: ROCK1 phosphorylation activity (Reaction Biology, radiometric)
# Type: biochemical, H. sapiens
# experimentalParameters: read-out: IC50: ROCK1: H. sapiens
// units = nM; emit number, no label

Example entries and their recorded answers appear below.
[
  {
    "molecule": "Cc1c(Oc2ccc(C(C)N)cc2F)ccc2c1B(O)OC2.Cl (single isomer, unassigned) [F]",
    "measValue": 540
  },
  {
    "molecule": "Cc1c(Oc2ccc(CN)cc2F)ccc2c1B(O)OC2 [D]",
    "measValue": 340
  },
  {
    "molecule": "Cc1c(Oc2ccc(C(C)N)cc2F)ccc2c1B(O)OC2 (single isomer, unassigned) [G]",
    "measValue": 170
  }
]

Quick check: IC50 on ROCK1 (Homo sapiens (Human), UniProt Q13464), item Cc1c(Oc2ccc(C(C)N)cc2F)ccc2c1B(O)OC2 (centres unmarked) [E] ?
420

Quick check: IC50 on ROCK1 (Homo sapiens (Human), UniProt Q13464), item CC(N)c1ccc(Oc2ccc3c(c2)B(O)OC3)c(F)c1.Cl (centres unmarked) [C] ?
540

----------
# systemUnderTest: ROCK2 (Homo sapiens (Human))
# assayNotes: Kinase binding panel (KINOMEscan), ROCK2
# experimentalParameters: table under Kinase Binding Panel
# Sequence (O75116 whole entry): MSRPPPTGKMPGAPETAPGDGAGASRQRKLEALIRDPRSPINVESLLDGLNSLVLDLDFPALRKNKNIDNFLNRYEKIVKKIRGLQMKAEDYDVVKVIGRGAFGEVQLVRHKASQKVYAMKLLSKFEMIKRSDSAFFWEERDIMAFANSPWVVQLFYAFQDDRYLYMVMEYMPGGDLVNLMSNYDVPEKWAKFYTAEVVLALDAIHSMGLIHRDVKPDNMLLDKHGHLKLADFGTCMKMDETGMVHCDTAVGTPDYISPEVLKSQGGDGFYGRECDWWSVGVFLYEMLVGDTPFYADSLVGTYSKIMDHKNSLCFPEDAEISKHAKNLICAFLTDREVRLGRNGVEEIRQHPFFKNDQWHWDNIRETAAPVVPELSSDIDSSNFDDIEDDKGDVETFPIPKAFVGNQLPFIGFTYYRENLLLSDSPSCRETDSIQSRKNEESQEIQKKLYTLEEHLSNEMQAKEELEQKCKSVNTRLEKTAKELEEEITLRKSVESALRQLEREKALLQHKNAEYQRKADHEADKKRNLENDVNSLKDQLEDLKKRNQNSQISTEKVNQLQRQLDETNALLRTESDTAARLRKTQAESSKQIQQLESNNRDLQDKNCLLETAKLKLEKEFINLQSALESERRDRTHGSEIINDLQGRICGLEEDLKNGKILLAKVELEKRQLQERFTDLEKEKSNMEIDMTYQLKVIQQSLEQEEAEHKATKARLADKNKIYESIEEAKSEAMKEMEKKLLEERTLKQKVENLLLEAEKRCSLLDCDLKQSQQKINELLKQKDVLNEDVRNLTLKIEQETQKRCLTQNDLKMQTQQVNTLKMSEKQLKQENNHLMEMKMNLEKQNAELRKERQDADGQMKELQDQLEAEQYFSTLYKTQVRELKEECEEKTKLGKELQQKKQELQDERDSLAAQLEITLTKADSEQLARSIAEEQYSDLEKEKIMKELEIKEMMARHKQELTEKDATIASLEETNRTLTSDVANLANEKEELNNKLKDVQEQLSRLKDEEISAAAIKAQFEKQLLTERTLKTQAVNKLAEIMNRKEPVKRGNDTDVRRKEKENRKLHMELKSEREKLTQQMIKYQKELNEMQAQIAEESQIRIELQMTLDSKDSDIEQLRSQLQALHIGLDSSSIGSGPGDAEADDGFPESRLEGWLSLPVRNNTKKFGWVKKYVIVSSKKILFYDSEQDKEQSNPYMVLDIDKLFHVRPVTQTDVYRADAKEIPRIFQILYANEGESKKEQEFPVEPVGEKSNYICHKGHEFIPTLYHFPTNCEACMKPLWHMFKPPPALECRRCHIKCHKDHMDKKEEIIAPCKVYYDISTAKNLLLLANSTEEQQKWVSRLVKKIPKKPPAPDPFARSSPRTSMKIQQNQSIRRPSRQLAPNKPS
Measured IC50 of individual entries
// units = nM; emit number, no label

Look at this compound and give its reported IC50. `CC(C)c1c(Oc2ccc(CN)cc2Cl)ccc2c1B(O)OC2`
47.2

Look at this compound and give its reported IC50. `NCc1ccc(Oc2ccc3c(c2Cl)B(O)OC3)c(Cl)c1`
16000

----------
# Test system: p-MYPT1 phosphorylation in PANC-1 cells
# assayNotes: Intracellular MYPT1 phosphorylation assay in PANC-1 cells
# Type: cell-based, H. sapiens
# experimentalParameters: Homo sapiens, PANC-1, read-out: IC50: Inhib p-MYPT1 Phosphorylation in H. sapiens PANC-1 cells, .0417 days [uM]
recordedMetric: IC50 (µM)
// units = µM; emit number, no label

Look at this molecule and give its reported IC50. Cc1c(Oc2ccc(C(C)N)cc2F)ccc2c1B(O)OC2 (single isomer, unassigned)
18.7
